Test system: OVCAR-5 ovarian
measurement.protocol: NCI tumour cell line growth inhibition, 48 h; in the data active = GI50 below about 0.43 µM; inactive = the rest
Where a SMILES comes first, the peptide text is derived from it. [ ]: non-standard residue; d: D form. The star is where a group is joined. ξ: configuration not given here. NMeF = CN[C@@H](Cc1ccccc1)C(=O)O; NMeN = CN[C@@H](CC(N)=O)C(=O)O; NMeV = CN[C@H](C(=O)O)C(C)C; ξNMeV = CNC(C(=O)O)C(C)C; Boc = CC(C)(C)OC(=O)*; ξNMeA = CNC(C)C(=O)O; ξV = CC(C)C(N)C(=O)O
Just give me one of these, please: 1 (yes) (active), 0 (no) (inactive)

Ask: Tell me the assay call for "COc1ccc2[nH]c(=O)c(/C=C/C(=O)c3ccccc3OC)cc2c1" please.
Reply: 0 (no)

Ask: Any idea what this test logged for "N=C(N)c1ccc(-c2ccc(-c3cccs3)o2)cc1" ?
Reply: 0 (no)

Ask: State the result this test recorded for "Cc1n(Cc2ccc3ccccc3c2)c2ccccc2[n+]1Cc1ccc2ccccc2c1" .
Reply: 0 (no)

Ask: In this assay, the call recorded for "COC(=O)[C@@H](C)C[C@H](Cc1ccccc1)NC(=O)c1nc([C@@H](C[C@H](C(C)C)N(C)C(=O)[C@@H](NC(=O)[C@H]2CCCCN2C)C(C)C)OC(C)=O)sc1C(C)C" was what?
Reply: 1 (yes)

Ask: What is the recorded call for this compound in the test? CC1CN=C(c2cccc(-c3ccc(-c4ccccc4)o3)c2)N1 (stereo unspecified)
Reply: 0 (no)

Ask: Could you please tell me the result logged for "Nc1cc2ccccc2c(O)c1O" in this assay?
Reply: 0 (no)

Ask: # lookup: test call for "Nc1c(C(=O)c2cccc(-c3ccncc3)c2)cnn1-c1ccc(F)cc1"
Reply: 0 (no)

Ask: Lab log entry: "Clc1ccc(-c2nc(-c3ccccc3)cn3ccnc23)cc1" — outcome as called in the assay?
Reply: 0 (no)

Ask: Assay outcome for Cc1cc(-c2ccc(C3C(C#N)=C(N)Oc4c3c(=O)oc3ccccc43)cc2)cnc1F (stereo unspecified) : what was it?
Reply: 0 (no)

Ask: Test call for this compound, please: COC(=O)C(C)N(C)C(=O)[C@H](CC(N)=O)N(C)C(=O)[C@@H]1CCCN1C(=O)[C@H](C(C)C)N(C)C(=O)C(C(C)C)N(C)C(=O)[C@H](Cc1ccccc1)N(C)C(=O)C(NC(=O)OC(C)(C)C)C(C)C (stereo partly specified) (Boc-[ξV][NMeF][ξNMeV][NMeV]P[NMeN][ξNMeA]-OMe)
Reply: 0 (no)

Ask: What classification did CCC(C)C1=NC(C(=O)N/C=C\c2c[nH]c3cc(Br)c(Br)cc23)(C(C)C)NC1=O (stereo unspecified) end up with in this test?
Reply: 0 (no)

###

Test system: HOP-92 NSCLC
measurement.protocol: NCI tumour cell line growth inhibition, 48 h; in the data active means GI50 below about 0.43 µM; inactive means the rest
Choose the fitting class; nothing outside class 1 for active, class 0 for inactive is accepted.

Ask: Which outcome was assigned to "C/C(=C\COc1ccc2ccc(=O)oc2c1)C1=CC(=O)C(C)(C)O1" in this test?
Reply: class 0

Ask: # fetch the recorded call for COC(=O)C1C(O)C(C)C(O)C(C)(O)/C=C/C=C(C)C(=O)Nc2c(C)c(OC(C)=O)c3c(c2O)C(=O)C(C)=C2OCOC(=C23)C(C)=CC(C)(O)C(O)C(C)C1OC(C)=O (stereo not given) here
Reply: class 0

Ask: State the result this test recorded for "CN(C)c1ccc(N=Nc2ccc(Br)cn2)c(O)c1" .
Reply: class 0

Ask: Status in this test for "Cc1n(Cc2ccc3ccccc3c2)c2ccccc2[n+]1Cc1ccc2ccccc2c1" ?
Reply: class 1

Ask: // outcome(item) with item = "COc1ccc2c(c1)C(=O)c1c-2c(=O)n(CCCCCCC(=O)NO)c2ccccc12"
Reply: class 1

Ask: I would be grateful if you could indicate the recorded call for "Oc1cc(Cn2cnc3c(Cl)nc(Cl)nc32)ccc1C12CC3CC(CC(C3)C1)C2" .
Reply: class 0

Ask: Test call, this compound: CN1C(=O)C23CC4(C56CC78SSC(CO)(C(=O)N7C5Nc5ccccc56)N(C)C8=O)c5ccccc5NC4N2C(=O)C1(CO)SS3 (stereo not given)
Reply: class 1

Ask: Assay result, entry Cc1cc(-c2ccc(C3C(C#N)=C(N)Oc4c3c(=O)oc3ccccc43)cc2)cnc1F (stereo not given) — outcome?
Reply: class 0

Ask: Which outcome was entered for the compound CC(=O)O[C@H]1[C@@H]2OC(=O)C3(CC3)C2C[C@H]2O[C@]2(C)CC/C=C(\C)CCC[C@@H]1C (stereo not given in full) in this test?
Reply: class 0

Ask: Assay outcome for "C=C(C)[C@@H]1CC[C@]2(C)[C@H](CC[C@@H]3[C@@H]([C@@](C)(O)CCC=C(C)C)CC[C@]32C)[C@@]1(C)CCC(=O)N1CCN(C)CC1" : what was it?
Reply: class 0

Ask: Per the records of this test, what outcome belongs to "COc1cccc(-n2ncc3c(N/N=C/c4cccc(F)c4)ncnc32)c1" ?
Reply: class 0

Ask: Please indicate how the test categorized "c1ccc(-c2nc([P+](c3ccccc3)(c3ccccc3)c3ccccc3)c(N3CCOCC3)o2)cc1" .
Reply: class 0

Ask: Which outcome was entered for the compound "N=C(N)c1ccc(-c2ccc(-c3cccs3)o2)cc1" in this test?
Reply: class 0

Ask: I would be grateful if you could indicate the recorded call for "Cc1cnc(NC2CCOCC2)nc1-n1cnc(C(=O)N[C@H](CN)c2cc(F)cc(Cl)c2)c1" .
Reply: class 1

Ask: Please state the recorded outcome for this compound: "C=C1C(=O)O[C@H]2[C@H]1CC/C(COC(=O)NCc1c[nH]c3ccc(Br)cc13)=C\CC[C@@]1(C)O[C@@H]21"
Reply: class 0

Ask: Hi team, can someone confirm the assay call for "COc1ccc(-c2cn(-c3cccc(C(=O)/C=C/c4cc(OC)c(OC)c(OC)c4)c3)c(=O)[nH]2)cc1" ?
Reply: class 0

Ask: What call does the record list for "CC(C)CC(=O)[O-].CC(C)CC(=O)[O-].N.N.N.N.[Co+3].[O-][Cl+3]([O-])([O-])O.[O-][Cl+3]([O-])([O-])[O-]" ?
Reply: class 0

Ask: What was the test verdict on "CNCCC/C=C1\c2cc3c(cc2-c2c1c1cc(OC)c(OC)cc1c(=O)n2C)OCO3" ?
Reply: class 1

Ask: What classification did "C/C(=N\NC(=O)c1ccccc1N)c1ccccc1O" end up with in this test?
Reply: class 0

Ask: Fill in: this test's call for "O=C(c1cccs1)c1c(C(F)(F)F)n([O-])c2ccc(Cl)cc2[n+]1=O" is ___
Reply: class 0
